Target: PTPN3-PDZ (Homo sapiens, UniProt P26045)
Construct: GST (followed by a TEV cleavage site) (N, cleaved yes); made in house; host or cells: E. coli BL21 Star (DE3)
Sequence (P26045 510-582 limits assumed): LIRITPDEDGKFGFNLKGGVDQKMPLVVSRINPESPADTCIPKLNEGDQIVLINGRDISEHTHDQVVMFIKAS
Assay: NMR titration (1H,15N HSQC chemical shift perturbation) of PBM peptide affinity for PTPN3-PDZ
Format: binding
Ends that are not written are not given here.
quantity.measured: Kd (µM)
Numbers only, in µM.

Query block: Input RQERLQRRETQV [HPV18E6 PBM] , output reported Kd.
Result block: 37

All values here come from paper PMC6520365.
